# Subject Of Test: UGT1A1 (Homo sapiens, UniProt P22309)
# Sequence (P22309 26-533): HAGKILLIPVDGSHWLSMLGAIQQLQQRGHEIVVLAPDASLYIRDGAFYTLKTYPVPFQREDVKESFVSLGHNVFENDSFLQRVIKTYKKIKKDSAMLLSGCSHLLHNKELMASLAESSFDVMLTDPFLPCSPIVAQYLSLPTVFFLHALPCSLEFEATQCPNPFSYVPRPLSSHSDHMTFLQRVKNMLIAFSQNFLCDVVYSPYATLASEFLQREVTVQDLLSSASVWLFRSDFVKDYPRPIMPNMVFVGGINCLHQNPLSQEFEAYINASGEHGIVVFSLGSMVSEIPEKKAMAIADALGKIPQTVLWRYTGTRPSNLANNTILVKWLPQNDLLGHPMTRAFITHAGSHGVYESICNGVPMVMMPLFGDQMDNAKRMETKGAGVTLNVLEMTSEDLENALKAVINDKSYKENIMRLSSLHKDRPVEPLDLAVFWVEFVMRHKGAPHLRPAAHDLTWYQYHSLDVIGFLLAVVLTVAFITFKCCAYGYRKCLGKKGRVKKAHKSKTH
# Method Description: in vitro
# Condition Details: pH 7.5, Inhibition of raloxifene glucuronidation, G1, UGT1A1
Assignment: determine reported activity at 15 min, 50 µM for the given compounds.
# output: bare number, implied unit %

input: What value of measured activity at 15 min, 50 µM is listed for COc1c(C)c2c(c(O)c1C/C=C(\C)CCC(=O)O)C(=O)OC2 [Mycophenolic acid, reference compound] ?
output: 90

input: What value of measured activity at 15 min, 50 µM is listed for COc1cc(C2Oc3cc([C@H]4Oc5cc(O)cc(O)c5C(=O)[C@@H]4O)ccc3OC2CO)ccc1O (stereo partly shown) [Silibinin] ?
output: 18

input: What value of measured activity at 15 min, 50 µM is listed for O=C(O)Cc1ccccc1Nc1c(Cl)cccc1Cl [Diclofenac, reference compound] ?
output: 66

input: What value of measured activity at 15 min, 50 µM is listed for O=c1c(O)c(-c2ccc(O)c(O)c2)oc2cc(O)cc(O)c12 [Quercetin] ?
output: 2

input: What value of measured activity at 15 min, 50 µM is listed for O=C(O)c1cc(-c2ccc(F)cc2F)ccc1O [Diflunisal, reference compound] ?
output: 31

input: What value of measured activity at 15 min, 50 µM is listed for O=C(O[C@@H]1Cc2c(O)cc(O)cc2O[C@@H]1c1ccc(O)c(O)c1)c1cc(O)c(O)c(O)c1 [Epicatechin gallate] ?
output: 23

input: What value of measured activity at 15 min, 50 µM is listed for CCCOC(=O)c1cc(O)c(O)c(O)c1 [Propyl gallate] ?
output: 72
